Observation Type: melting point

O=C(CC(c1ccc(Cl)cc1Cl)c1c[nH]c2ccccc12)c1ccccc1 (stereo not shown) [Compound 3l]; 110 to 112 °C
O=C(C[C@@H](c1ccccc1)c1c[nH]c2ccccc12)c1ccc2ccccc2c1 [Compound 3g]; 166 to 169 °C
O=C(CC(c1cccc(Br)c1)c1c[nH]c2ccccc12)c1ccccc1 (stereo not shown) [Compound 3r]; 102 to 104 °C
COc1ccc([C@H](CC(=O)c2ccc3ccccc3c2)c2c[nH]c3ccccc23)cc1 [Compound 3f]; 159 to 162 °C
O=C(C[C@@H](c1cccs1)c1c[nH]c2ccccc12)c1ccccc1 [Compound 3k]; 112 to 115 °C
Cc1ccc([C@H](CC(=O)c2ccc3ccccc3c2)c2c[nH]c3ccccc23)cc1 [Compound 3j]; 174 to 177 °C

Problem: // query melting point value for entry Cc1ccc([C@H](CC(=O)c2ccccc2)c2c[nH]c3ccccc23)cc1 [Compound 3d]
Result: 153 to 155 °C

Problem: Reported melting point, compound Cc1cc(C)c([C@H](CC(=O)c2ccccc2)c2c[nH]c3ccccc23)c(C)c1 [Compound 3c] : ____
Result: 169 to 171 °C

Problem: Which melting point value belongs to COc1ccc([C@H](CC(=O)c2ccccc2)c2c[nH]c3ccccc23)cc1 [Compound 3e] ?
Result: 134 to 136 °C

Problem: Any idea what melting point was measured for O=C(C[C@@H](c1ccc(Cl)cc1)c1c[nH]c2ccccc12)c1ccccc1 [Compound 3h] ?
Result: 189 to 192 °C

Problem: Any idea what its melting point is? The compound is O=C(CC(c1ccc(Br)cc1)c1c[nH]c2ccccc12)c1ccccc1 (stereo not shown) [Compound 3q]
Result: 95 to 97 °C

Problem: Give its melting point value. Item: Cc1cc(C)c([C@H](CC(=O)c2ccc3ccccc3c2)c2c[nH]c3ccccc23)c(C)c1 [Compound 3i]
Result: 227 to 229 °C
